Hello, the source for this data is patent US20240148821A1, in case you need it.

# Target Under Test: protein-protein interaction between Kras and SOS1 (biotin-tagged human Kras loaded with GDP, His-tagged human SOS1) (Homo sapiens (Human), UniProt P01116, G12D)
# Assay Explanation: Protein-protein interaction inhibition between Kras and SOS1 (KrasG12D-SOS PPI) using AlphaScreen;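 note: kras produced in E. coli, Ni-coupled donor beads and streptavidin acceptor beads, excitation 680 nm with emission detected at 520–620 nm via singlet oxygen transfer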
# Format: biochemical
# Cond: AlphaScreen; biotin-tagged human Kras loaded with GDP, His-tagged human SOS1; read-out: KRAS G12D-SOS PPI IC50
Numbered stars: 1 amine (or outer) side, 2 acyl side, 3 side chain; on linkers, the order of the positions; unused ones are H or OH. Bridge positions count the residues as written; N and C are the ends. Square brackets hold non-standard residues; d marks the D form. Peptide text beside a SMILES is read from it. * marks the point of attachment. hPhe(3,5-F2-4-CF3) = N[C@@H](CCc1cc(F)c(C(F)(F)F)c(F)c1)C(=O)O; hPhe(3-Cl-4-CF3) = N[C@@H](CCc1ccc(C(F)(F)F)c(Cl)c1)C(=O)O; hPhe(4-CF3) = N[C@@H](CCc1ccc(C(F)(F)F)cc1)C(=O)O; NEtPhe(4-Me) = CCN[C@@H](Cc1ccc(C)cc1)C(=O)O; NMePhe(4-Cl) = CN[C@@H](Cc1ccc(Cl)cc1)C(=O)O; NMePhe(4-Me) = CN[C@@H](Cc1ccc(C)cc1)C(=O)O; NMedβ3hAla = C[C@H](CC(=O)[*:2])N(C)[*:1]; NMeGly(cPent) = CN[C@H](C(=O)O)C1CCCC1; NMeCha = CN[C@@H](CC1CCCCC1)C(=O)O; Hyp = O=C(O)[C@@H]1C[C@@H](O)CN1; NEtLeu = CCN[C@@H](CC(C)C)C(=O)O; N(CH2CH2)2CF2 = FC1(F)CCN(*)CC1; NMeD = CN[C@@H](CC(=O)O)C(=O)O; NMeL = CN[C@@H](CC(C)C)C(=O)O; NMeV = CN[C@H](C(=O)O)C(C)C; d(β3hA) = C[C@@H](N)CC(=O)O; Morpholide = C1CN(*)CCO1; NMeA = CN[C@@H](C)C(=O)O; Ac5c = NC1(C(=O)O)CCCC1; Aze = O=C(O)[C@@H]1CCN1; Aib = CC(C)(N)C(=O)O; Sar = CNCC(=O)O
Value Kind: IC50 (nM)
Answer format: numeric, nM implied, no suffix.

[[record]]
molecule = "CC[C@H](C)[C@@H]1NC(=O)[C@H](CC(C)C)N(CC)C(=O)C[C@@H](C)NC(=O)[C@H](C2CCCC2)N(C)C(=O)C2(CCCC2)NC(=O)[C@@H]2CCCN2C(=O)[C@H](CCc2ccc(C(F)(F)F)c(Cl)c2)NC(=O)CN(C)C(=O)[C@H](Cc2ccc(C)cc2)N(C)C(=O)[C@@H]2CCN2C(=O)[C@H](C)N(C)C1=O [Compound 531] (cyclo([Ac5c][NMeGly(cPent)][d(β3hA)][NEtLeu]I[NMeA][Aze][NMePhe(4-Me)][Sar][hPhe(3-Cl-4-CF3)]P))"
display_unit = "nM"
endpoint_value = 1.6

[[record]]
molecule = "CC[C@H](C)[C@@H]1NC(=O)[C@H](C)N(C)C(=O)C[C@@H](C)N(C)C(=O)[C@H](CC(C)C)NC(=O)C(C)(C)NC(=O)[C@H](CC(C)C)NC(=O)[C@H](CCc2ccc(C(F)(F)F)cc2)NC(=O)CN(C)C(=O)[C@H](Cc2ccc(Cl)cc2)N(C)C(=O)CN(C)C(=O)CN(C)C1=O [Compound 170] (cyclo([Aib]L[NMedβ3hAla][NMeA]I[Sar][Sar][NMePhe(4-Cl)][Sar][hPhe(4-CF3)]L))"
display_unit = "nM"
endpoint_value = 350

[[record]]
molecule = "CC[C@H](C)[C@@H]1NC(=O)[C@H](CC(C)C)N(C)C(=O)C[C@@H](C(=O)N(C)C)NC(=O)[C@H](C(C)C)N(C)C(=O)C2(CCCC2)NC(=O)[C@H](CC(=O)N2CCC(F)(F)CC2)N(C)C(=O)[C@H](CCc2ccc(C(F)(F)F)c(Cl)c2)NC(=O)CN(C)C(=O)[C@H](CC2CCCCC2)N(C)C(=O)CN(C)C(=O)CN(C)C1=O [Compound 97] ([NMeL]I[Sar][Sar][NMeCha][Sar][hPhe(3-Cl-4-CF3)][NMeD](N(CH2CH2)2CF2)[Ac5c][NMeV]D-NMe2; lactam N-11)"
display_unit = "nM"
endpoint_value = 40


Query: Endpoint output: IC50 of CC[C@H](C)[C@@H]1NC(=O)[C@H](CC(C)C)N(CC)C(=O)C[C@@H](C(=O)N2CCOCC2)N(C)C(=O)[C@H](C2CCCC2)N(C)C(=O)C2(CCCC2)NC(=O)[C@@H]2CCCN2C(=O)[C@H](CCc2ccc(C(F)(F)F)c(Cl)c2)NC(=O)CN(C)C(=O)[C@H](CC2CCCCC2)N(C)C(=O)[C@@H]2CCN2C(=O)[C@H](C)NC1=O [Compound 1266] ([NEtLeu]IA[Aze][NMeCha][Sar][hPhe(3-Cl-4-CF3)]P[Ac5c][NMeGly(cPent)][NMeD]-Morpholide; lactam N-11) . Value?
Result: 1.2

Query: For the molecule shown here, CCO[C@@H]1C[C@H]2C(=O)NC3(CCCC3)C(=O)N(C)[C@@H](C3CCCC3)C(=O)N(C)[C@H](C)CC(=O)N(C)[C@@H](CC(C)C)C(=O)N[C@@H]([C@@H](C)CC)C(=O)N(C)[C@@H](C)C(=O)N3CC[C@H]3C(=O)N(CC)[C@@H](Cc3ccc(C)cc3)C(=O)N(C)CC(=O)N[C@@H](CCc3cc(F)c(C(F)(F)F)c(F)c3)C(=O)N2C1 [Compound 432] (cyclo([Ac5c][NMeGly(cPent)][NMedβ3hAla][NMeL]I[NMeA][Aze][NEtPhe(4-Me)][Sar][hPhe(3,5-F2-4-CF3)][Hyp](Et))) , give the reported IC50.
Result: 4.5
